The values you see were collected from paper PMC9482650.

# target-system: T1, NHERF3_3, Q5T2W1
# T1 sequence (Q5T2W1 238-333, limits assumed, looked up): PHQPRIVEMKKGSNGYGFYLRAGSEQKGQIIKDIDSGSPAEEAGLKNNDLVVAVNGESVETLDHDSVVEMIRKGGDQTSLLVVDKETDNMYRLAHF
# measurement-protocol: holdup assay
# Set-up: key: below the threshold = too weak to quantify, mostly under pKd 3.1 to 4
# condition-context: plain residues with an end cap or a label only (N-terminal biotin on a linker: ado-ado)
measured-property: pKd

These recorded examples may help you get a feel for the data.
{"columns": ["binder", "pKd"],
 "data": [
  ["GFGEERESIL [KIDINS220, Q9ULH0]", "below the threshold"],
  ["TETASVCTKV [SLC23A1, Q9UHI7]", 3.7],
  ["EEPEERHTEL [CES2, O00748]", "below the threshold"],
  ["FVHPILQSAV [PRKCA, P17252]", "below the threshold"]
]}

Could you now consider this next binder?
Q: Need pKd of QKNKDKEYYV [NRXN3_rs746444206, Q9Y4C0] , thanks.
Ans: below the threshold
